Tested on: MCF-7
Test: MTT assay (anti-proliferative activity)
Type: cell-based
Details: 96 h continual exposure, read-out: IC 50 MCF-7
metric: IC50 (µM)
API: value field is a number in µM; no unit string.

Memo: CCCCC/C=C\C/C=C\CCCCCCCC(=O)Oc1c(OC)c(OC)cc2c1C(=O)OC(C)C2 (racemic) [ALM-3, Racemic Kigelin Linoleyl Ester] , reported IC50: 150

Per the records, this compound ( CC1Cc2ccc(C(=O)NC(Cc3ccccc3)C(=O)OC(C)(C)C)c(O)c2C(=O)O1 (mixture of isomers) [ALM-53, L-Phenyl Alanine Tert-Butyl Ester Amide] ) has IC50 equal to 9.4

GET /value?item= CC(C)(C)OC(=O)[C@H](Cc1ccccc1)NC(=O)c1ccc2c(c1O)C(=O)OC(C)(C)C2 &field=IC50 returns 14.8

Looking up CC1Cc2ccc(C(=O)Oc3ccccc3)c(O)c2C(=O)O1 (racemic) , I found its IC50 recorded as 285

Notebook: CC1(C)Cc2ccc(C(=O)N[C@@H](Cc3ccccc3)C(=O)O)c(O)c2C(=O)O1 , IC50 read as 2.21

# compound CNC(=O)c1ccc2c(c1O)C(=O)OC(C)C2 (racemic) [ALM-48, Methyl Amide] ; its IC50 = 268

So for CC1Cc2ccc(C(=O)Nc3ccccc3)c(O)c2C(=O)O1 (racemic) [ALM-45, Aniline Amide] , the logged IC50 turned out to be 26.9

// sample CC(C)(C)OC(=O)[C@H](Cc1ccccc1)NC(=O)c1ccc2c(c1O)C(=O)OCC2 , its IC50 was 18.2

For this compound ( CC(C)CC(NC(=O)c1ccc2c(c1O)C(=O)OC(C)C2)C(=O)OC(C)(C)C (mixture of isomers) [ALM-55, Leucine Tert-Butyl Ester Amide] ), measured IC50 is 43.4

The compound listed as O=C(N[C@@H](Cc1ccccc1)C(=O)O)c1ccc2c(c1O)C(=O)OCC2 shows IC50 equal to 8.4

* * *

Tested on: RKO
Assay: MTT assay (anti-proliferative activity)
Format: cell-based
metric: pIC50
# pIC50 = -log10(concentration in molar units)

// CCCCC/C=C\C/C=C\C/C=C\CCCCCOC(=O)c1ccc2c(c1O)C(=O)OC(C)C2 (racemic) : pIC50 value = 4.97

* * *

System: MalMe3M
Assay: MTT assay (anti-proliferative activity)
Format: cell-based
Details: Homo sapiens, Malme-3M, 96 h continual exposure, read-out: IC 50 MalMe3M
pIC50: −log10 of the molar value.
metric: pIC50

MalMe3M pIC50 of CC1Cc2cccc(O)c2C(=O)O1 (racemic) [ALM-9, Racemic Mellein] is < 3.02

Assay MalMe3M, sample COC(=O)c1ccc2c(c1O)C(=O)OC(C)C2 (racemic) , pIC50 read: < 3.07

I looked up CC1Cc2ccc3c(c2C(=O)O1)OC(C)(C)OC3=O (stereo not shown) [ALM-75, Acetonide Compound] and its pIC50 for MalMe3M was < 3.12

With MalMe3M as the test system, CC1Cc2c(Br)ccc(O)c2C(=O)O1 (racemic) showed pIC50 of 3.60

Observed pIC50, MalMe3M, COC(=O)c1ccc2c(c1O)C(=O)OC(C)(C)C2 : < 3.10

So the reported pIC50 for CC1Cc2c(I)cc(I)c(O)c2C(=O)O1 (racemic) [ALM-27, Racemic 2,4-di-iodomellein] , on MalMe3M, turned out to be 3.96

The observed pIC50 for CC1(C)Cc2ccc(C(=O)O)c(O)c2C(=O)O1 when tested with MalMe3M stands at < 3.07

Field pIC50 (MalMe3M), entry C[C@@H]1Cc2cccc(O)c2C(=O)O1 : < 3.02

Measured on MalMe3M, COc1cccc2c1C(=O)OC(C)C2 (racemic) [ALM-12, Racemic Mellein Methyl Ether] has a documented pIC50 of < 2.98

Entry CC1Cc2c([N+](=O)[O-])cc([N+](=O)[O-])c(O)c2C(=O)O1 (racemic) [ALM-30, Racemic 2,4-dinitromellein] under MalMe3M had pIC50 of 3.85

* * *

Test system: MCF-7
Assay: MTT assay (anti-proliferative activity)
Format: cell-based
Settings: 96 h continual exposure, read-out: IC 50 MCF-7
Hi there, I'd appreciate the recorded IC50 for every entry that follows.

Summary for this compound, CC1Cc2ccc(C(=O)NC(CCCCN)C(=O)O)c(O)c2C(=O)O1 (mixture of isomers) : IC50 is > 570 µM

Record summary for CC1Cc2ccc(C(=O)N3CCCC3)c(O)c2C(=O)O1 (racemic) [ALM-47, Pyrrolidine Amide] : reported IC50 = > 726 µM

// IC50 value for CC1Cc2c(F)ccc(O)c2C(=O)O1 (racemic) [ALM-23, Racemic Para-Fluoromellein] : > 1020 µM

* * *

Tested on: MCF-7
Experiment: MTT assay (anti-proliferative activity)
Assay type: cell-based
Settings: 96 h continual exposure, read-out: IC 50 MCF-7
Please respond with reported IC50 for every item in the list.

So, CCCCC/C=C\C/C=C\CCCCCCCC(=O)Oc1cccc2c1C(=O)OC(C)C2 (racemic) [ALM-18, Racemic Mellein Linoleyl Ester] ? Its IC50 was > 453 µM

For this compound ( CCCCCCCC/C=C\CCCCCCCCOC(=O)c1ccc2c(c1O)C(=O)OC(C)C2 (racemic) ), measured IC50 is > 423 µM

Record summary for CC1Cc2ccc(C(=O)n3ccnc3)c(O)c2C(=O)O1 (racemic) : reported IC50 = > 734 µM
